Experiment: Solubility in water and aqueous acid media
Type: physicochemical
Conditions: water, pH 4.2, water, thermodynamic from solid, water, pH=4.2; read-out: solubility in water
ENDPOINT_LABEL: solubility

Short answer for `CCN(CC)C(=O)c1ccc([C@H](c2cccc(N)c2)N2CCN(Cc3ccc(F)cc3)CC2)cc1` : solubility was > 41 mg/mL

* * *

Assay: Solubility in simulated biological media
Assay type: physicochemical
Conditions: SGF (simulated gastric fluid), pH 1.3, simulated gastric fluid, thermodynamic from solid, initial pH 1.3; 3 hr; mean ± SD, n = 2
Description: Solubility and Dissolution Rate Data. Solubility and Dissolution Rate Data. […]
ENDPOINT_LABEL: solubility at 3 h (mg/mL)
Write it as a number; the unit mg/mL goes unstated.

Short answer for `CCN(CC)C(=O)c1ccc([C@H](c2cccc(N)c2)N2CCN(Cc3ccc(F)cc3)CC2)cc1` : solubility at 3 h was 23

* * *

Assay: Solubility in water and aqueous acid media
Assay type: physicochemical
Details: 0.1N HCl, pH 2, simulated gastric fluid, thermodynamic from solid, 0.1N HCl, pH about 2; read-out: solubility in 0.1N HCl
ENDPOINT_LABEL: solubility

Short answer for `CCN(CC)C(=O)c1ccc([C@H](c2cccc(N)c2)N2CCN(Cc3ccc(F)cc3)CC2)cc1` : solubility was 24.9 mg/mL

* * *

Experiment: Solubility in simulated biological media
Assay type: physicochemical
Details: 0.1M phosphate buffer, pH 7.5, aqueous buffer, thermodynamic from solid, initial pH 7.5; 24 hr; mean ± SD, n = 2
ENDPOINT_LABEL: solubility at 24 h
Please provide the amount together with its unit, number first.

Short answer for `CCN(CC)C(=O)c1ccc([C@H](c2cccc(N)c2)N2CCN(Cc3ccc(F)cc3)CC2)cc1` : solubility at 24 h was 100 µg/mL

* * *

Experiment: Partition coefficient LogD
Type: physicochemical
Details: pH 7.4; free base
ENDPOINT_LABEL: logD
Lab note: jot the number down without any unit.

Short answer for `CCN(CC)C(=O)c1ccc([C@H](c2cccc(N)c2)N2CCN(Cc3ccc(F)cc3)CC2)cc1` : logD was 2.53

* * *

Assay: Equilibrium solubility at 25° C.
Format: physicochemical
Details: simulated gastric fluid, thermodynamic from solid, 0.1N HCl
ENDPOINT_LABEL: solubility thermodynamic (mg/mL)
Write it as a number; the unit mg/mL goes unstated.

Short answer for `CCN(CC)C(=O)c1ccc([C@H](c2cccc(N)c2)N2CCN(Cc3ccc(F)cc3)CC2)cc1` : solubility thermodynamic was 21.6

* * *

Assay: Equilibrium solubility at 25° C.
Format: physicochemical
Conditions: 0.1 M phosphate buffer, aqueous buffer, thermodynamic from solid, pH 7.8, Phosphate 0.1M
ENDPOINT_LABEL: solubility thermodynamic (µg/mL)
Write it as a number; the unit µg/mL goes unstated.

Short answer for `CCN(CC)C(=O)c1ccc([C@H](c2cccc(N)c2)N2CCN(Cc3ccc(F)cc3)CC2)cc1` : solubility thermodynamic was 160

* * *

Assay: Solubility in water and aqueous acid media
Type: physicochemical
Conditions: 0.1 M phosphoric acid, pH 3.5, aqueous buffer, thermodynamic from solid, ambient temperature, pH of about 3.5 (0.1 M phosphoric acid); read-out: solubility in water (0.1 M phosphoric acid)
ENDPOINT_LABEL: solubility

Short answer for `CCN(CC)C(=O)c1ccc([C@H](c2cccc(N)c2)N2CCN(Cc3ccc(F)cc3)CC2)cc1` : solubility was ~12 mg/mL

* * *

Test: Solubility in simulated biological media
Format: physicochemical
Settings: SGF (simulated gastric fluid), pH 1.3, simulated gastric fluid, thermodynamic from solid, initial pH 1.3; 24 hr; mean ± SD, n = 2
ENDPOINT_LABEL: solubility at 24 h

Short answer for `CCN(CC)C(=O)c1ccc([C@H](c2cccc(N)c2)N2CCN(Cc3ccc(F)cc3)CC2)cc1` : solubility at 24 h was 22 mg/mL

* * *

Test: Equilibrium solubility at 25° C.
Format: physicochemical
Settings: thermodynamic from solid, Pure water
ENDPOINT_LABEL: solubility thermodynamic
Please provide the amount together with its unit, number first.

Short answer for `CCN(CC)C(=O)c1ccc([C@H](c2cccc(N)c2)N2CCN(Cc3ccc(F)cc3)CC2)cc1` : solubility thermodynamic was 8700 µg/mL

* * *

Assay: Solubility in simulated biological media
Assay type: physicochemical
Conditions: FeSSIF (fed-state simulated intestinal fluid), pH 5.03, fessif, thermodynamic from solid, initial pH 5.03; 24 hr; mean ± SD, n = 2
ENDPOINT_LABEL: solubility at 24 h (µg/mL)
Write it as a number; the unit µg/mL goes unstated.

Short answer for `CCN(CC)C(=O)c1ccc([C@H](c2cccc(N)c2)N2CCN(Cc3ccc(F)cc3)CC2)cc1` : solubility at 24 h was 3060

* * *

Test: Dissociation constant (pKa)
Assay type: physicochemical
Details: piperazine nitrogen of free base
ENDPOINT_LABEL: pKa
Lab note: jot the number down without any unit.

Short answer for `CCN(CC)C(=O)c1ccc([C@H](c2cccc(N)c2)N2CCN(Cc3ccc(F)cc3)CC2)cc1` : pKa was 7.26

* * *

Experiment: Solubility in water and aqueous acid media
Format: physicochemical
Conditions: 0.1M phosphate acid, pH 3.5, aqueous buffer, thermodynamic from solid, 0.1M phosphate acid, pH=3.5; read-out: solubility in 0.1M phosphate acid
ENDPOINT_LABEL: solubility (mg/mL)
Write it as a number; the unit mg/mL goes unstated.

Short answer for `CCN(CC)C(=O)c1ccc([C@H](c2cccc(N)c2)N2CCN(Cc3ccc(F)cc3)CC2)cc1` : solubility was 12

* * *

Assay: Solubility in water and aqueous acid media
Type: physicochemical
Settings: 0.1 M phosphoric acid, pH 3.3, aqueous buffer, thermodynamic from solid, ambient temperature, pH of about 3.3 (0.1 M phosphoric acid); read-out: solubility in water (0.1 M phosphoric acid)
ENDPOINT_LABEL: solubility

Short answer for `CCN(CC)C(=O)c1ccc([C@H](c2cccc(N)c2)N2CCN(Cc3ccc(F)cc3)CC2)cc1` : solubility was > 40 mg/mL

* * *

Assay: Solubility in simulated biological media
Type: physicochemical
Conditions: simulated gastric fluid (SGF), pH 1.3, simulated gastric fluid, thermodynamic from solid, SGF (simulated gastric fluid), initial pH 1.3; 24 hr; mean ± SD, n = 2
ENDPOINT_LABEL: solubility at 24 h (mg/mL)
Write it as a number; the unit mg/mL goes unstated.

Short answer for `CCN(CC)C(=O)c1ccc([C@H](c2cccc(N)c2)N2CCN(Cc3ccc(F)cc3)CC2)cc1` : solubility at 24 h was 21.9

* * *

Experiment: Solubility in simulated biological media
Type: physicochemical
Details: simulated gastric fluid (SGF), pH 1.3, simulated gastric fluid, thermodynamic from solid, SGF (simulated gastric fluid), initial pH 1.3; 3 hr; mean ± SD, n = 2
ENDPOINT_LABEL: solubility at 3 h (mg/mL)
Write it as a number; the unit mg/mL goes unstated.

Short answer for `CCN(CC)C(=O)c1ccc([C@H](c2cccc(N)c2)N2CCN(Cc3ccc(F)cc3)CC2)cc1` : solubility at 3 h was 23.1

* * *

Experiment: Equilibrium solubility at 25° C.
Format: physicochemical
Conditions: 0.1 M citrate buffer, aqueous buffer, thermodynamic from solid, pH 4.5, Citrate 0.1M
ENDPOINT_LABEL: solubility thermodynamic (mg/mL)
Write it as a number; the unit mg/mL goes unstated.

Short answer for `CCN(CC)C(=O)c1ccc([C@H](c2cccc(N)c2)N2CCN(Cc3ccc(F)cc3)CC2)cc1` : solubility thermodynamic was 15.6
